B1: Tudor domain-containing protein 3, residues 554 to 611; numbered along this chain, Q9H7E2 (parent)
chain: KMWKPGDECFALYWEDNKFYRAEVEALHSSGMTAVVKFIDYGNYEEVLLSNIKPIQTE

Variants of: B1
Test: abundance fitness (aPCA) (normalised: wild type 0, dead -1); higher = more abundant; growth selection in yeast, the domain comes from the species named
Conditions: Homo sapiens
Hi there, I'd appreciate the recorded abundance fitness for every entry that follows.
Give bare numbers.

V35T ... 0.104

Would you mind listing abundance fitness for each of the following variants?
1. E45K
2. G42T
3. K4N
4. T57Y

Key:
1: -0.43; 2: -0.736; 3: -0.233; 4: -0.072

These entries and their values trace back to the Human Domainome abundance scans (Beltran et al. 2025).
